# assayTarget: T1, Full-length human HER3 extracellular domain (ECD) (human, UniProt P21860 20-643)
# T1 construct: also called human HER3 ECD; HER-3 ECD full length
# T1 sequence (P21860 20-643): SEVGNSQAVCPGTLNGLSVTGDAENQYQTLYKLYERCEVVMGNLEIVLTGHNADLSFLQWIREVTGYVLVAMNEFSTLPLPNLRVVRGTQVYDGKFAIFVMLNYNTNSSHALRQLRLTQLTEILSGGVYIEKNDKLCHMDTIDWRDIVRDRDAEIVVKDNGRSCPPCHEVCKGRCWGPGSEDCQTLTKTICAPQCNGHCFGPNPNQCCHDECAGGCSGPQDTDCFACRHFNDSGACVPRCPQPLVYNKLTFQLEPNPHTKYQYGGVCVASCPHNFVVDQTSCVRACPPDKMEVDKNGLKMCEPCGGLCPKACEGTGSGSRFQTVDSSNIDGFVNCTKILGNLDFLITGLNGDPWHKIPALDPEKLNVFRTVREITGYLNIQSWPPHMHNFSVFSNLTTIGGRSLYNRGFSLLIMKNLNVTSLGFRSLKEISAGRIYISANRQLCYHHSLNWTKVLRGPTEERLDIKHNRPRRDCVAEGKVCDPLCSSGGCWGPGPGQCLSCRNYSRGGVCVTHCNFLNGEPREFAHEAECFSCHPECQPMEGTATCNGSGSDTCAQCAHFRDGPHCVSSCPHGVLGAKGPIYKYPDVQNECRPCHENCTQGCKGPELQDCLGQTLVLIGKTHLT
# test: BIACORE 3000 SPR, mAb captured by anti-human Fc, ECD as analyte, 25 C

binder: 1D9 H3L6 RR antibody (antibody, V domains shown) VH: QVQLVQSGAEVKKPGASVKVSCKASGYTFTSYWMHWVRQAPGQGLEWMGVIDPSDGYSHYNQKFKGKVTMTRDTSISTAYMELSRLRSDDTAVYYCARGLAGTLDYWGQGTTVTVSS VL: DVVMTQSPLSLPVTLGQPASISCRSSQSIVHSSGNTYLQWFQQRPGQSPRRLIYKVSNRFSGVPDRFSGSGSGTDFTLKISRVEAEDVGVYYCFQGSHVPWTFGQGTKLEIKR
kon [M⁻¹ s⁻¹]: 30400

All values here come from patent US20130156779A1.
